The reported measurements were obtained from patent US10106542B2.

assayed system: human mGlu2 receptor (Homo sapiens, UniProt Q14416)
Construct: expressed in transfected cells; host or cells: CHO cells (membrane preparation)
Sequence (Q14416 19-872): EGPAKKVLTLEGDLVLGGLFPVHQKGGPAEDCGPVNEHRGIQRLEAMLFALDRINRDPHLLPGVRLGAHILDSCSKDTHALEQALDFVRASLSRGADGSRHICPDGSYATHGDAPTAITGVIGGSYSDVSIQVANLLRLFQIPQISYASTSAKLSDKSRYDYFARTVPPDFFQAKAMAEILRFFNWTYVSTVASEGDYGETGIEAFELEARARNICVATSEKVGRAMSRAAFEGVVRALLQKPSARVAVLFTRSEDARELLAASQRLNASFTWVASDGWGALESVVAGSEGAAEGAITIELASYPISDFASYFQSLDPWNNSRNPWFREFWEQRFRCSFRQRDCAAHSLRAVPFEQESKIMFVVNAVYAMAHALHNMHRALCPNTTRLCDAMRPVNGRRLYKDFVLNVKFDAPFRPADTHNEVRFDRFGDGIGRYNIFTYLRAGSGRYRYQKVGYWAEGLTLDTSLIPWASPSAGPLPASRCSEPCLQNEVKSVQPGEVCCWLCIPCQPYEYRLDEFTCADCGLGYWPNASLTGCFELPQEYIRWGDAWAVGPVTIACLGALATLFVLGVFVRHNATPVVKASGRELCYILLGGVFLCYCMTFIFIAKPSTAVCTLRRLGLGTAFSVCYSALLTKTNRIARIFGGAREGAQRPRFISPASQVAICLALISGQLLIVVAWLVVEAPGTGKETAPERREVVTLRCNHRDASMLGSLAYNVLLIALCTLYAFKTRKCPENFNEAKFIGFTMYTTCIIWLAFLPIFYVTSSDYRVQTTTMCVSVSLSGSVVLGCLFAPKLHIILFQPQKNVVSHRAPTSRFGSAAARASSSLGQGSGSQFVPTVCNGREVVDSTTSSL
assay comment: [35S]GTPγS binding assay (mGluR2 negative allosteric modulation)
Type: biochemical
test context: relative maximal effect: maximal % inhibition relative to the control glutamate response; read-out: GTPγS - hmGluR2 anGT Emax
experimental endpoint: Emax (%)
# number only, unit % dropped from output

- item smiles: "CNc1cc(-c2cnn3c2C(=O)N(c2ccc(C(F)(F)F)cc2)C[C@@H]3C)ccn1"
  observed: 106

q: I have this molecule here, "C[C@H]1CN(c2ccc(C(F)(F)F)cc2)C(=O)c2c(-c3ccnc(C(F)(F)F)c3)cnn21" , and I need its recorded Emax.
a: 108

q: Next molecule up: "Cc1cc(-c2cnn3c2C(=O)N(c2ccc(C(F)(F)F)c(F)c2)C[C@@H]3C)cc(C)n1"
a: 106

q: Next molecule up: "CCOc1cc(-c2cnn3c2C(=O)N(c2ccc(Cl)c(Cl)c2)C[C@@H]3C)ccn1"
a: 104

q: Next molecule up: "C[C@H]1CN(c2ccc(S(F)(F)(F)(F)F)cc2)C(=O)c2c(-c3ccncc3)cnn21"
a: 102

q: Next molecule up: "CCOc1nc(N2C[C@H](C)n3ncc(-c4cc(C)nc(C)c4)c3C2=O)ccc1C(F)(F)F"
a: 102

q: Next molecule up: "COc1cc(-c2cnn3c2C(=O)N(c2ccc(C(F)(F)F)cc2)C[C@@H]3C)cc(C)n1"
a: 105

q: Next molecule up: "Cc1cc(-c2cnn3c2C(=O)N(c2cccc(OC(F)(F)F)c2)C[C@@H]3C)ccn1"
a: 107

====

Test system: Male Wiga Wistar rats
assay comment: Reversal of LY-404039-induced decrease of palpebral opening in apomorphine-challenged rats
Assay type: in vivo
test context: Rattus norvegicus, Route PO; reversal of LY-404039-induced decrease of palpebral opening (cumulative score >26) in apomorphine challenged rats
experimental endpoint: ED50 (mg/kg)
# number only, unit mg/kg dropped from output

// below: answered molecules
- molecule: "CCNc1cc(-c2cnn3c2C(=O)N(c2ccc(C(F)(F)F)cc2)C[C@@H]3C)ccn1 [compound 44]"
  ED50, mg/kg: 0.5
- molecule: "Cc1cc(-c2cnn3c2C(=O)N(c2ccc(C(F)(F)F)cc2)C[C@@H]3C)cc[n+]1[O-] [compound 140]"
  ED50, mg/kg: 1.99
- molecule: "C[C@H]1CN(c2ccc(C(F)(F)F)cc2)C(=O)c2c(-c3ccncc3)cnn21 [compound 2]"
  ED50, mg/kg: 0.5
- molecule: "Cc1cc(-c2cnn3c2C(=O)N(c2ccc(Cl)cc2)C[C@@H]3C)ccn1 [compound 15]"
  ED50, mg/kg: 11.2

q: I have this molecule here, COc1cc(-c2cnn3c2C(=O)N(c2ccc(C(F)(F)F)cc2)C[C@@H]3C)ccn1 [compound 45] , and I need its recorded ED50.
a: 0.79

====

assayed system: human mGlu2 receptor (Homo sapiens, UniProt Q14416)
Construct: expressed in transfected cells; host or cells: CHO cells (membrane preparation)
assay comment: [35S]GTPγS binding assay (mGluR2 negative allosteric modulation)
Type: biochemical
test context: relative maximal effect: maximal % inhibition relative to the control glutamate response; read-out: GTPγS - hmGluR2 anGT Emax
Emax reference
# number only, unit % dropped from output

q: I have this compound here, CNc1cc(-c2cnn3c2C(=O)N(c2ccc(C(F)(F)F)c(OC)n2)C[C@@H]3C)ccn1 [compound 237] , and I need its recorded Emax.
a: 111

q: Next compound up: Cc1cc(-c2cnn3c2C(=O)N(c2cc(Cl)c(C)cn2)C[C@@H]3C)ccn1 [compound 198]
a: 104

q: Next compound up: CCNc1cc(-c2cnn3c2C(=O)N(c2ccc(C(F)(F)F)cc2)C[C@@H]3C)ccn1 [compound 44]
a: 105

====

Emax reference
assayed system: human mGlu2 receptor (Homo sapiens)
Construct: expressed in transfected cells; host or cells: CHO cells (membrane preparation)
assay comment: [35S]GTPγS binding assay (mGluR2 negative allosteric modulation)
Assay type: biochemical
test context: relative maximal effect: maximal % inhibition relative to the control glutamate response; read-out: GTPγS - hmGluR2 anGT Emax
# number only, unit % dropped from output

- item smiles: "Cc1cc(-c2cnn3c2C(=O)N(c2ccc(C(F)(F)F)cc2)CC3(C)C)ccn1"
  unit name: "%"
  Emax: 94

q: I have this molecule here, "COc1cc(N2C[C@H](C)n3ncc(-c4ccnc(C)c4)c3C2=O)ccc1Cl" , and I need its recorded Emax.
a: 105

q: Next molecule up: "CNc1cc(-c2cnn3c2C(=O)N(c2ccc(C(F)(F)F)c(F)c2)C[C@@H]3C)ccn1"
a: 106

q: Next molecule up: "CCOc1cc(N2CCn3ncc(-c4ccnc(C)c4)c3C2=O)ccc1C(F)(F)F"
a: 99

====

Where a name gives a salt, the structure may show the parent alone.
melting point reference

// below: answered compounds
- compound: "Cc1cc(-c2cnn3c2C(=O)N(c2ccc(C(F)(F)F)c(C)c2)C[C@@H]3C)cc(C)n1 [compound 157]"
  melting point: "158.9 °C"
- compound: "C[C@H]1CN(c2ccc(C(F)(F)F)cc2)C(=O)c2c(-c3ccnc(N)c3)cnn21 [compound 71]"
  melting point: "218.9 °C"
- compound: "CCOc1ccc(N2C[C@H](C)n3ncc(-c4ccnc(C)c4)c3C2=O)cc1Cl (as salt: HCl) [compound 17]"
  melting point: "> 300 °C"
- compound: "Cc1cc(-c2cnn3c2C(=O)N(c2ccc(Cl)cc2F)C[C@@H]3C)ccn1 [compound 30]"
  melting point: "78.6 °C"
- compound: "Cc1cc(-c2cnn3c2C(=O)N(c2cc(F)c(C(F)(F)F)c(F)c2)C[C@@H]3C)ccn1 [compound 132]"
  melting point: "148 °C"

q: I have this compound here, Cc1cc(-c2cnn3c2C(=O)N(c2ccc(C(F)(F)F)c(F)c2)C[C@@H]3C)cc(C)n1 [compound 61] , and I need its recorded melting point.
a: 73.3 °C

q: Next compound up: C[C@H]1CN(c2ccc(C(F)(F)F)cc2)C(=O)c2c(-c3ccnc(CF)c3)cnn21 [compound 112]
a: 154.9 °C

q: Next compound up: C[C@H]1CN(c2ccc(C(F)(F)F)cc2)C(=O)c2c(-c3ccnc(N4CCOCC4)c3)cnn21 [compound 108]
a: 128.1 °C

====

assayed system: human mGlu2 receptor (Homo sapiens)
Construct: expressed in transfected cells; host or cells: CHO cells (membrane preparation)
assay comment: [35S]GTPγS binding assay (mGluR2 negative allosteric modulation)
Format: biochemical
test context: relative maximal effect: maximal % inhibition relative to the control glutamate response; read-out: GTPγS - hmGluR2 anGT Emax
experimental endpoint: Emax (%)
# number only, unit % dropped from output

- molecule: "C[C@H]1CN(c2ccc(C(F)(F)F)c(CF)c2)C(=O)c2c(-c3ccnc(N(C)C)c3)cnn21 [compound 246]"
  assayed system: "human mGlu2 receptor (Homo sapiens)"
  unit name: "%"
  Emax: 116

q: I have this molecule here, Cc1cc(-c2cnn3c2C(=O)N(c2ccc(C(C)C(F)(F)F)cc2)C[C@@H]3C)ccn1 (stereo partly shown) [compound 113] , and I need its recorded Emax.
a: 103

q: Next molecule up: COc1cc(-c2cnn3c2C(=O)N(c2ccc(Cl)c(Cl)c2)C[C@@H]3C)cc(C)n1 [compound 146]
a: 105

q: Next molecule up: C[C@H]1CN(c2ccc(C(F)(F)F)cc2)C(=O)c2c(-c3ccnc(C#N)c3)cnn21 [compound 127]
a: 103

q: Next molecule up: Cc1cc(-c2cnn3c2C(=O)N(c2ccc(C(F)F)cc2)C[C@@H]3C)ccn1 [compound 162]
a: 102

q: Next molecule up: Cc1cc(-c2cnn3c2C(=O)N(c2ccc(C(F)(F)F)cc2)CC3C(F)(F)F)ccn1 (stereo not shown) [compound 238]
a: 103

q: Next molecule up: Cc1cc(-c2cnn3c2C(=O)N(c2cccc(Cl)c2)C[C@@H]3C)ccn1 [compound 16]
a: 102

q: Next molecule up: Cc1cc(-c2cnn3c2C(=O)N(c2ccc(OC(F)(F)F)cc2)C[C@@H]3C)ccn1 [compound 152]
a: 105

q: Next molecule up: C[C@H]1CN(c2ccc(Cl)c(Cl)c2)C(=O)c2c(-c3ccnc(C4CC4)c3)cnn21 [compound 122]
a: 108

q: Next molecule up: C[C@H]1CN(c2ccc(C(F)(F)F)cc2)C(=O)c2c(-c3ccnc(C(F)F)c3)cnn21 [compound 131]
a: 105

q: Next molecule up: Cc1cc(-c2cnn3c2C(=O)N(c2ccc(Cl)cc2C)C[C@@H]3C)ccn1 [compound 172]
a: 105

q: Next molecule up: CCc1cc(-c2cnn3c2C(=O)N(c2ccc(Cl)c(Cl)c2)C[C@@H]3C)ccn1 [compound 134]
a: 104

q: Next molecule up: COc1cc(-c2cnn3c2C(=O)N(c2ccc(Cl)cc2)C[C@@H]3C)ccn1 [compound 89]
a: 104

q: Next molecule up: Cc1cc(-c2cnn3c2C(=O)N(c2ccc(C(C)(C)C)cc2)C[C@@H]3C)ccn1 [compound 141]
a: 102

q: Next molecule up: Cc1cc(-c2cnn3c2C(=O)N(c2ccc(C(F)(F)F)cc2)CC3CF)ccn1 (stereo not shown) [compound 52]
a: 107

q: Next molecule up: Cc1cc(-c2cnn3c2C(=O)N(c2ccc(Cl)c(OC(F)(F)F)c2)C[C@@H]3C)ccn1 [compound 169]
a: 105
